The measurements presented in this section are drawn from patent US20210323914A1.

test system: Factor VII; test: In vivo mouse Factor VII siRNA knockdown with lipid nanoparticles; set-up: species or system C57BL/6 mice; conditions: dose 0.03 mg/kg, intravenous, mice, 48 hours
endpoint: Bioactivity: percentage in vivo Factor VII knockdown (percentage)
Quick note: give the figure in percentage, leave out the unit.

>>> measured_result("CCCCCC/C=C\\COC(=O)CCCN(CC(=O)OC(CCCCCCC)CCCCCCC)C(=O)SCCCN(CC)CC")
70
>>> measured_result("CCCCCC/C=C\\COC(=O)CCCCCCCN(CCCC(=O)OC(CCCCCCC)CCCCCCC)C(=O)SCCN(C)C")
73
>>> measured_result("CCCCCC/C=C\\COC(=O)CCCN(CCCC(=O)OC(CCCCCCC)CCCCCCC)C(=O)SCCN(C)C [ATX-0081]")
93
>>> measured_result("CCCCCCCC(CCCCCCC)OC(=O)CCCN(CCCC(=O)OC(CCCCCCC)CCCCCCC)C(=O)SCCCN(C)C")
99
>>> measured_result("CCCCCC/C=C\\COC(=O)CN(CC(=O)OC(CCCCCCC)CCCCCCCC)C(=O)SCCN(C)C (centres unmarked) [ATX-0064]")
0

stdin: Lab request: please report Bioactivity: percentage in vivo Factor VII knockdown under test system Factor VII for "CCCCCC/C=C\COC(=O)CCCCCN(CCCCC(=O)OC(CCCCCCC)CCCCCCC)C(=O)SCCN(C)C"
stdout: 90

stdin: Lab request: please report Bioactivity: percentage in vivo Factor VII knockdown under test system Factor VII for "CCC/C=C/CCC(CC/C=C/CCC)OC(=O)CCCCCCN(CCCCCCC(=O)OC/C=C\CCCCCC)C(=O)SCCN(C)C"
stdout: 67

* * *

Overview of recorded Δ measured pKa vs ATX-0002 for various molecules
test: Measured pKa of cationic lipids in LNP or micellar formulations by TNS fluorescence; format: physicochemical; conditions: change on shortening the ester, vs ATX-0002
Reply briefly: the number, and no unit.

Recorded Δ measured pKa vs ATX-0002, per entry:
>>> measured_result("CCCCCC/C=C\\COC(=O)CN(CC(=O)OC(CCCCCCCC)CCCCCCCC)C(=O)SCCN(C)C [ATX-0061]")
"−0.90"
>>> measured_result("CCCCCC/C=C\\COC(=O)CN(CC(=O)OC(CCCCC)CCCCC)C(=O)SCCN(C)C [ATX-0063]")
"−0.7"

Let us move to another entry and its Δ measured pKa vs ATX-0002.
stdin: If you can, please state the reported Δ measured pKa vs ATX-0002 value of CCCCCC/C=C\COC(=O)CN(CC(=O)OC(CCCCCCC)CCCCCCCC)C(=O)SCCN(C)C (centres unmarked) [ATX-0064] .
stdout: −0.90

* * *

test: Measured pKa of cationic lipids in LNP or micellar formulations by TNS fluorescence; format: physicochemical; settings: measured in the Formulation milieu, TNS fluorescence, 1 mM total lipids
Overview of recorded pKa for various compounds
Reply briefly: the number, and no unit.

>>> measured_result("CCCCCC/C=C\\COC(=O)CCCN(CCCC(=O)OC(CCCCCCCC)CCCCCCCC)C(=O)SCCN(C)C [drawing 76]")
6.06
>>> measured_result("CCCCCC/C=C\\COC(=O)CCCCCCCN(CCCCCCCC(=O)OC(CCCC)CCCC)C(=O)SCCN(C)C")
6.22
>>> measured_result("CCCCCC/C=C\\COC(=O)CCCN(CC(=O)OC(CCCCCCC)CCCCCCC)C(=O)SCCCN(CC)CC")
6.53
>>> measured_result("CCCCCCCC(CCCCCCC)OC(=O)CCCN(CCCC(=O)OC(CCCCCCC)CCCCCCC)C(=O)SCCCN(C)C")
6.38
>>> measured_result("CCCCCC/C=C\\COC(=O)CCCN(CCCC(=O)OC(CCCCCCC)CCCCCCCC)C(=O)SCCN(C)C (stereo not drawn)")
5.7
>>> measured_result("CCCCCCCC(CCCCCCC)OC(=O)CN(CC(=O)OC(CCCCCCC)CCCCCCC)C(=O)SCCCN(C)C")
5.68
>>> measured_result("CCCCCC/C=C\\COC(=O)CCCCCN(CCCCC(=O)OC(CCCCCCC)CCCCCCC)C(=O)SCCN(C)C")
5.9
>>> measured_result("CCCCCC/C=C\\COC(=O)CCCCCCCN(CCCCCCCC(=O)OC(CCCCCCCC)CCCCCCCC)C(=O)SCCN(C)C")
5.59

stdin: If you can, please state the reported pKa value of CCCCCC(CCCCC)OC(=O)CN(CC(=O)OC(CCCCC)CCCCC)C(=O)SCCCN(C)C [drawing 51] .
stdout: 6.28

* * *

System: Factor VII
Experiment: In vivo mouse Factor VII siRNA knockdown with lipid nanoparticles
Parameters: species or system C57BL/6 mice
Details: dose 0.03 mg/kg, intravenous, mice, 48 hours
From the text: The first pair of numbers denotes the number of carbons in the ester, including the carbonyl, for L1 and L2; the pair of numbers in the parenthesis denotes the number of carbons in each branch of the branched alkyl, R1 or if R2 is also branched, R1/R2 (an asterisk denotes a double bond); the number of carbons in R3 is given; and the last line denotes the substitution for R4 and R5. The ATX number is given for reference herein. […]
endpoint: Bioactivity: percentage in vivo Factor VII knockdown (percentage)
Quick note: give the figure in percentage, leave out the unit.

Recorded Bioactivity: percentage in vivo Factor VII knockdown, per entry:
>>> measured_result("CCCCCC/C=C\\COC(=O)CCCCCCCN(CCCCCCCC(=O)OC(CCCCCCCC)CCCCCCCC)C(=O)SCCN(C)C [ATX-0096]")
40
>>> measured_result("CCCCCC/C=C\\COC(=O)CCCCCCCN(CCCCCCCC(=O)OC(CCCC)CCCC)C(=O)SCCN(C)C")
71
>>> measured_result("CCCCCC/C=C\\COC(=O)CN(CC(=O)OC(CCCCCCCC)CCCCCCCC)C(=O)SCCCCN(CC)CC")
97
>>> measured_result("CCCCCC/C=C\\COC(=O)CCCCCN(CCCC(=O)OC(CCCCCCC)CCCCCCC)C(=O)SCCN(C)C [ATX-0083]")
65
>>> measured_result("CCCCCC/C=C\\COC(=O)CN(CC(=O)OC(CCCCC)CCCCC)C(=O)SCCN(C)C [ATX-0063]")
0

stdin: Lab request: please report Bioactivity: percentage in vivo Factor VII knockdown under test system Factor VII for CCCCCC/C=C\COC(=O)CCCN(CCCC(=O)OC(CCCCCCC)CCCCCCCC)C(=O)SCCN(C)C (centres unmarked) [ATX-0057]
stdout: 86

stdin: Lab request: please report Bioactivity: percentage in vivo Factor VII knockdown under test system Factor VII for "CCCCCC/C=C\COC(=O)CN(CC(=O)OC(CCCCCCCC)CCCCCCCC)C(=O)SCCCCN(C)C"
stdout: 90

stdin: Lab request: please report Bioactivity: percentage in vivo Factor VII knockdown under test system Factor VII for "CCCCCC/C=C\COC(=O)CCCCCCCN(CCCCCCCC(=O)OC(CCCCC)CCCCC)C(=O)SCCN(C)C"
stdout: 68

* * *

tested on: Factor VII; assay: In vivo mouse Factor VII siRNA knockdown with lipid nanoparticles; design: species or system C57BL/6 mice; settings: dose 0.03 mg/kg, intravenous, mice, 48 hours
So basically: Bioactivity: percentage in vivo Factor VII knockdown at 80 percentage or higher? That is true. Lower than 80 percentage? That is false.

For orientation, consider the following solved cases.
>>> label("CCCCCC/C=C\\COC(=O)CCCN(CC(=O)OC(CCCCCCC)CCCCCCC)C(=O)SCCN(C)C")
"false"
>>> label("CCCCCC/C=C\\COC(=O)CCCN(CCCC(=O)OC(CCCCCC)CCCCCC)C(=O)SCCN(C)C")
"false"
>>> label("CCCCCC/C=C\\COC(=O)CCCCCN(CCCCCC(=O)OC(CCCCCC)CCCCCC)C(=O)SCCN(C)C")
"false"
>>> label("CCCCCC/C=C\\COC(=O)CCCCCN(CCCCCC(=O)OC(CCCCCCC)CCCCCCC)C(=O)SCCN(C)C")
"true"
>>> label("CCCCCC/C=C\\COC(=O)CCCCCN(CCCCCC(=O)OC(CCCCCCCC)CCCCCCCC)C(=O)SCCN(C)C")
"true"
>>> label("CCCCCC/C=C\\COC(=O)CCCCCCCN(CCCCCCCC(=O)OC(CCCCCC)CCCCCC)C(=O)SCCN(C)C")
"false"

Read the next record carefully.
stdin: Form field: Bioactivity: percentage in vivo Factor VII knockdown at least 80 percentage? Entry: CCCCCCC(CCCCC)OC(=O)CCCN(CCCCC(=O)OC(CCCCC)CCCCC)C(=O)SCCN(C)C (centres unmarked)
stdout: false

* * *

Tested on: Factor VII
Experiment: In vivo mouse Factor VII siRNA knockdown with lipid nanoparticles
Set-up: species or system C57BL/6 mice
Details: dose 0.03 mg/kg, intravenous, mice, 48 hours
Source text: The first pair of numbers denotes the number of carbons in the ester, including the carbonyl, for L1 and L2; the pair of numbers in the parenthesis denotes the number of carbons in each branch of the branched alkyl, R1 or if R2 is also branched, R1/R2 (an asterisk denotes a double bond); the number of carbons in R3 is given; and the last line denotes the substitution for R4 and R5. The ATX number is given for reference herein. […]
Overview of recorded Bioactivity: percentage in vivo Factor VII knockdown for various compounds
Quick note: give the figure in percentage, leave out the unit.

Recorded Bioactivity: percentage in vivo Factor VII knockdown, per entry:
>>> measured_result("CCCCCC/C=C\\COC(=O)CCCN(CCCC(=O)OC(CCCCCC)CCCCCCC)C(=O)SCCN(C)C (stereo not shown)")
86
>>> measured_result("CCCCCC/C=C\\COC(=O)CCCCCN(CCCCCC(=O)OC(CCCCCCC)CCCCCCC)C(=O)SCCCN(CC)CC")
95
>>> measured_result("CCCCCC/C=C\\COC(=O)CCCCCN(CCCC(=O)OC(CCCCCCCC)CCCCCCCC)C(=O)SCCN(C)C")
81
>>> measured_result("CCCCCC/C=C\\COC(=O)CCCN(CC(=O)OC(CCCCCCC)CCCCCCC)C(=O)SCCCN(C)C")
53
>>> measured_result("CCCCCC(CCCCC)OC(=O)CN(CC(=O)OC(CCCCC)CCCCC)C(=O)SCCCN(C)C [drawing 52]")
0
>>> measured_result("CCCCCC/C=C\\COC(=O)CN(CC(=O)OC(CCCCCCCC)CCCCCCCC)C(=O)SCCN(C)C")
0

Let us move to another entry and its Bioactivity: percentage in vivo Factor VII knockdown.
stdin: If you can, please state the reported Bioactivity: percentage in vivo Factor VII knockdown value of "CCC/C=C/CCC(CC/C=C/CCC)OC(=O)CCCCCN(CCCCCC(=O)OC/C=C\CCCCCC)C(=O)SCCN(C)C" .
stdout: 82
